Hi there, I'd appreciate the recorded inhibition at 1 µM for every entry that follows.
molecular target: human recombinant serotonin (5-Hydroxytryptamine) 5-HT2C receptor (Homo sapiens, UniProt P28335); construct: expressed in transfected cells; host or cells: CHO-K1 cells; test: Serotonin 5-HT2C radioligand binding ([3H]Mesulergine); details: compound at 1 μM; read-out: Serotonin (1 μM) 5-HT2C, percent inhibition of specific binding
Sequence (P28335 33-458): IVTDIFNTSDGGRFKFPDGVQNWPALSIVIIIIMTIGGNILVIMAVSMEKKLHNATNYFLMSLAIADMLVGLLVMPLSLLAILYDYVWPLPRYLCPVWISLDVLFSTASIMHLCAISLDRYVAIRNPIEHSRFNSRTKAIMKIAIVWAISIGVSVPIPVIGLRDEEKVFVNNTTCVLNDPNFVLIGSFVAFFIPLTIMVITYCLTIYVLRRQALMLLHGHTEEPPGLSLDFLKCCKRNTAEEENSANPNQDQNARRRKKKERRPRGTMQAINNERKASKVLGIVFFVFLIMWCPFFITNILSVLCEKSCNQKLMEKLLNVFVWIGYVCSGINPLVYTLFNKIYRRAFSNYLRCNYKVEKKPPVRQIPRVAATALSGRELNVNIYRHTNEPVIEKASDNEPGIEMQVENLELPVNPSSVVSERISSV
Give bare numbers, in %.

Known inhibition at 1 µM results, listed for orientation:
C/C(=C\n1c2c(c3cc(Cl)ccc31)CCN(C)CC2)c1ccc(F)cc1 = 88
Cc1ccc(C(O)Cn2c3c(c4cc(C)ccc42)CCN(C)CC3)cc1 (centres unmarked) = 91

Please give inhibition at 1 µM, item by item, for the list that follows.
1. CN1CCc2c(n(CC(C)(O)c3ccc(F)cc3)c3ccc(Cl)cc23)CC1 (centres unmarked)
2. COc1ccc(/C(C)=C/n2c3c(c4cc(Cl)ccc42)CCN(C)CC3)cc1F
3. CN1CCc2c(n(CC(=O)Nc3ccccc3)c3ccc(Cl)cc23)CC1
4. CN1CCc2c(n(CC(O)c3cccnc3)c3ccc(Cl)cc23)CC1 (centres unmarked)
5. CC(C)NC(=O)Cn1c2c(c3cc(Cl)ccc31)CCN(C)CC2
6. CN1CCc2c(n(CC(O)c3ccccc3)c3ccc(Cl)cc23)CC1 (centres unmarked)

Result:
89
101
11
64
56
95
